# System: Vero E6 infected with SARS-CoV-2
# test_summary: inhibition of SARS-CoV-2 cytopathic effect; higher = more antiviral protection, active = above 15
# study_conditions: 1 nM; 48 h
endpoint_label: inhibition of SARS-CoV-2 cytopathic effect (%)

[
  {
    "molecule": "C#C[C@]1(OC(C)=O)CC[C@H]2[C@@H]3CCC4=CC(=NO)CC[C@@H]4[C@H]3CC[C@@]21CC (mixture of isomers) [norgestimate]",
    "units": "%",
    "experimental_value": -3.21
  },
  {
    "molecule": "C1=Cc2cccc(OCC3CNCCO3)c2C1 (stereo not drawn)",
    "units": "%",
    "experimental_value": 1.29
  },
  {
    "molecule": "CC(COc1ccccc1)N(CCCl)Cc1ccccc1 (stereo not drawn)",
    "units": "%",
    "experimental_value": 2.45
  },
  {
    "molecule": "CC1(C)OC(=O)C(OCC2CC2)=C1c1ccc(S(C)(=O)=O)cc1",
    "units": "%",
    "experimental_value": -1.63
  },
  {
    "molecule": "CCN(CC)CC(=O)Nc1c(C)cccc1C",
    "units": "%",
    "experimental_value": 0.85
  },
  {
    "molecule": "CNC(=O)O[C@H]1COc2ccc(N3CCN(C4COC4)CC3)cc2[C@@H]1NC(=O)c1ccc(F)cc1",
    "units": "%",
    "experimental_value": 1.12
  },
  {
    "molecule": "C=C1c2cccc(O)c2C(=O)C2=C(O)[C@]3(O)C(=O)C(C(N)=O)=C(O)[C@@H](N(C)C)[C@@H]3[C@@H](O)[C@H]12",
    "units": "%",
    "experimental_value": 1.27
  },
  {
    "molecule": "CN(C)C(=O)Oc1cccc([N+](C)(C)C)c1",
    "units": "%",
    "experimental_value": 1.41
  }
]

* * *

# Test system: Vero E6 infected with SARS-CoV-2
# test_summary: inhibition of SARS-CoV-2 cytopathic effect; higher = more antiviral protection, active = above 15
# study_conditions: 8.33 nM; 48 h
Reported inhibition of SARS-CoV-2 cytopathic effect is given for each of the following molecules.
endpoint_label: inhibition of SARS-CoV-2 cytopathic effect (%)

[
  {
    "molecule": "O[C@@H](CN1CCC(Cc2ccc(F)cc2)CC1)c1ccc(Cl)cc1 (racemic)",
    "target_or_test_system": "Vero E6 infected with SARS-CoV-2",
    "experimental_value": 0.95
  },
  {
    "molecule": "Clc1ccc2c(NCCNc3ccnc4cc(Cl)ccc34)ccnc2c1",
    "target_or_test_system": "Vero E6 infected with SARS-CoV-2",
    "experimental_value": 0.71
  },
  {
    "molecule": "CC(=O)N1CC[N+](C)(C)CC1",
    "target_or_test_system": "Vero E6 infected with SARS-CoV-2",
    "experimental_value": -1.23
  },
  {
    "molecule": "Cc1ccc(Cl)c(Nc2ccccc2C(=O)O)c1Cl",
    "target_or_test_system": "Vero E6 infected with SARS-CoV-2",
    "experimental_value": 1.04
  },
  {
    "molecule": "COC(=O)[C@@H]1C[C@H](OC(C)=O)C(=O)[C@H]2[C@@]1(C)CC[C@H]1C(=O)O[C@H](c3ccoc3)C[C@]21C",
    "target_or_test_system": "Vero E6 infected with SARS-CoV-2",
    "experimental_value": -1.89
  },
  {
    "molecule": "CN/C(=N\\CCSCc1nc[nH]c1C)NC#N",
    "target_or_test_system": "Vero E6 infected with SARS-CoV-2",
    "experimental_value": -1.81
  },
  {
    "molecule": "CCCC(=O)Nc1ccc(OCC(O)CNC(C)C)c(C(C)=O)c1 (stereo not given)",
    "target_or_test_system": "Vero E6 infected with SARS-CoV-2",
    "experimental_value": 2.88
  },
  {
    "molecule": "O=C(CBr)N1CC([N+](=O)[O-])([N+](=O)[O-])C1",
    "target_or_test_system": "Vero E6 infected with SARS-CoV-2",
    "experimental_value": -0.07
  },
  {
    "molecule": "COc1cc(C(C)=O)ccc1OCCCN1CCC(c2noc3cc(F)ccc23)CC1",
    "target_or_test_system": "Vero E6 infected with SARS-CoV-2",
    "experimental_value": -0.19
  },
  {
    "molecule": "C1=Cc2cccc(OCC3CNCCO3)c2C1 (stereo not given)",
    "target_or_test_system": "Vero E6 infected with SARS-CoV-2",
    "experimental_value": 2.5
  }
]
